# Measured target: T1, PSD-95 PDZ3 (aa 309-401) (UniProt P78352 309-401)
# T1 construct: postsynaptic density protein 95 (PSD-95), PDZ3, aa 309-401
# T1 sequence (P78352 309-401): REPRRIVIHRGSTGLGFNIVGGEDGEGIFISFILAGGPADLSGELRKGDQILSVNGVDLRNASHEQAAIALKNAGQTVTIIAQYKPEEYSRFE
# Experiment summary: SPR; PDZ domain immobilised by amine coupling (CM5 for PDZ1 and PDZ2, CM4 for PDZ3), peptides injected; Biacore X100, 25.0°C, HBS-EP+ (10 mM HEPES pH 7.4, 150 mM NaCl, 3 mM EDTA, 0.05% Surfactant P-20); 1 mM DTT for peptides with a cysteine; Kd from steady-state responses, 1:1 model with a linear component
# Condition: both partners purified
Property name: pKd
Worth noting: pKd values are minus log10 of concentrations stated in mol/L.

See these solved cases before continuing.
Binder | pKd
LDTKNYKQTSV (No YDDR/DDR linker is told for this peptide) [CRIPT C-tail peptide (human), unlabeled] | 5.82
YDDRQDIIDLQTEV (N-terminal linker; YDDR because the C-tail has no Tyr or Trp, by the rule of the methods; BAI1 receptor, human, 10 C-terminal aa; also called BAI1 receptor; source: synthetic peptide (Schafer-N)) [BAI1 C-tail peptide (human)] | 2.62
YDDRRPGFASESKV (N-terminal linker; YDDR because the C-tail has no Tyr or Trp, by the rule of the methods; β1-adrenergic receptor, human, 10 C-terminal aa; also called β1-adrenergic receptor; source: synthetic peptide (Schafer-N)) [β1AR C-tail peptide (human)] | 3.40
YDDRSVVSERISSV (N-terminal linker; YDDR because the C-tail has no Tyr or Trp, by the rule of the methods; 5-hydroxytryptamine receptor 2C, human, 10 C-terminal aa; source: synthetic peptide (Schafer-N)) [5-HTR2C C-tail peptide (human)] | 3.11

Consider the additional binder presented here.
**Query** Provide pKd value for the following binder: DDRKSSTMRISYL (N-terminal linker; DDR (Tyr omitted) because the C-tail contains Tyr, by the rule of the methods; somatostatin receptor 3, human, 10 C-terminal aa; source: synthetic peptide (Schafer-N)) [SSTR3 C-tail peptide (human)]
**Result** 3.62
